Substrate: CC(=O)Oc1ccc([N+](=O)[O-])cc1
Experiment: purified protein
Type: biochemical, Pelagibacterium halotolerans
Conditions: 100 mM Tris-HCl pH 7.5, 30 °C, 0.05-4 mM substrate in acetonitrile
Values of Vmax strictly less than 80 µM/min/mg map to YES, and values of at least 80 µM/min/mg map to NO.

Would you please look over these solved cases?
[
  {
    "protein": "PE8 (Pelagibacterium halotolerans B2; M122A) (protein, 6xHis fusion from pET28b in E. coli Rosetta (DE3), Ni-NTA and SEC; monomer; catalytic triad Ser118, Asp169, His201) MTEPVKLSGPMLPAVSGAAKSLVVLLHGYGSDGRDLIALGQFWRDSFPDTMFVAPNAPHVCGGNPFGYEWFPLDLERDRTLARLAGAETAHPVLDAFLADLWAQTGLGPADTILVGFSQGAAMALYTGLRLPEPLKAIIAFSGLIVAPEKLEAEIASKPPVLLIHGDLDDVVPVIGSETALPKLIDLGIDARLHISQGSGHTIAQDGLDTATAFLREIL",
    "qualitative_label": "NO"
  },
  {
    "protein": "PE8 (Pelagibacterium halotolerans B2; S118A) (protein, 6xHis fusion from pET28b in E. coli Rosetta (DE3), Ni-NTA and SEC; monomer; catalytic triad Ser118, Asp169, His201) MTEPVKLSGPMLPAVSGAAKSLVVLLHGYGSDGRDLIALGQFWRDSFPDTMFVAPNAPHVCGGNPFGYEWFPLDLERDRTLARLAGAETAHPVLDAFLADLWAQTGLGPADTILVGFAQGAMMALYTGLRLPEPLKAIIAFSGLIVAPEKLEAEIASKPPVLLIHGDLDDVVPVIGSETALPKLIDLGIDARLHISQGSGHTIAQDGLDTATAFLREIL",
    "qualitative_label": "YES"
  }
]

Task: Lab note: Vmax threshold 80 µM/min/mg. Does this protein come in strictly under it? PE8 (Pelagibacterium halotolerans B2) (protein, 6xHis fusion from pET28b in E. coli Rosetta (DE3), Ni-NTA and SEC; monomer; catalytic triad Ser118, Asp169, His201) MTEPVKLSGPMLPAVSGAAKSLVVLLHGYGSDGRDLIALGQFWRDSFPDTMFVAPNAPHVCGGNPFGYEWFPLDLERDRTLARLAGAETAHPVLDAFLADLWAQTGLGPADTILVGFSQGAMMALYTGLRLPEPLKAIIAFSGLIVAPEKLEAEIASKPPVLLIHGDLDDVVPVIGSETALPKLIDLGIDARLHISQGSGHTIAQDGLDTATAFLREIL
Result: YES

Task: Continue with PE8 (Pelagibacterium halotolerans B2; R79A) (protein, 6xHis fusion from pET28b in E. coli Rosetta (DE3), Ni-NTA and SEC; monomer; catalytic triad Ser118, Asp169, His201) MTEPVKLSGPMLPAVSGAAKSLVVLLHGYGSDGRDLIALGQFWRDSFPDTMFVAPNAPHVCGGNPFGYEWFPLDLERDATLARLAGAETAHPVLDAFLADLWAQTGLGPADTILVGFSQGAMMALYTGLRLPEPLKAIIAFSGLIVAPEKLEAEIASKPPVLLIHGDLDDVVPVIGSETALPKLIDLGIDARLHISQGSGHTIAQDGLDTATAFLREIL
Result: NO
